TARGET UNDER TEST: HLA-B*08:01
METHOD SUMMARY: IEDB peptide-MHC binding, purified MHC/direct/fluorescence; filed as Kd, often an IC50 or EC50 that approximates it; bounds were set here for any values at or beyond the usual limits of such assays
CONDITIONS: source organism: Pseudomonas viridiflava
pKd: −log10 of the molar value.
ASSAY READOUT: pKd

Challenge: Kindly indicate its recorded pKd. Item: `DYDQRDYGF`
Response given: ≤ 4.70

* * *

TARGET UNDER TEST: HLA-C*14:02
METHOD SUMMARY: IEDB peptide-MHC binding, purified MHC/direct/fluorescence; filed as Kd, often an IC50 or EC50 that approximates it; bounds were set here for any values at or beyond the usual limits of such assays
CONDITIONS: source organism: Orthohantavirus dobravaense
ASSAY READOUT: Kd (nM)
Reply with just the number (in nM).

Challenge: Kindly indicate its recorded Kd. Item: `KEISNQEPL`
Response given: 2070
